- Experimental system: Short transient receptor potential channel 4 (Mus musculus, UniProt Q9QUQ5)
- Sequence (Q9QUQ5 whole entry): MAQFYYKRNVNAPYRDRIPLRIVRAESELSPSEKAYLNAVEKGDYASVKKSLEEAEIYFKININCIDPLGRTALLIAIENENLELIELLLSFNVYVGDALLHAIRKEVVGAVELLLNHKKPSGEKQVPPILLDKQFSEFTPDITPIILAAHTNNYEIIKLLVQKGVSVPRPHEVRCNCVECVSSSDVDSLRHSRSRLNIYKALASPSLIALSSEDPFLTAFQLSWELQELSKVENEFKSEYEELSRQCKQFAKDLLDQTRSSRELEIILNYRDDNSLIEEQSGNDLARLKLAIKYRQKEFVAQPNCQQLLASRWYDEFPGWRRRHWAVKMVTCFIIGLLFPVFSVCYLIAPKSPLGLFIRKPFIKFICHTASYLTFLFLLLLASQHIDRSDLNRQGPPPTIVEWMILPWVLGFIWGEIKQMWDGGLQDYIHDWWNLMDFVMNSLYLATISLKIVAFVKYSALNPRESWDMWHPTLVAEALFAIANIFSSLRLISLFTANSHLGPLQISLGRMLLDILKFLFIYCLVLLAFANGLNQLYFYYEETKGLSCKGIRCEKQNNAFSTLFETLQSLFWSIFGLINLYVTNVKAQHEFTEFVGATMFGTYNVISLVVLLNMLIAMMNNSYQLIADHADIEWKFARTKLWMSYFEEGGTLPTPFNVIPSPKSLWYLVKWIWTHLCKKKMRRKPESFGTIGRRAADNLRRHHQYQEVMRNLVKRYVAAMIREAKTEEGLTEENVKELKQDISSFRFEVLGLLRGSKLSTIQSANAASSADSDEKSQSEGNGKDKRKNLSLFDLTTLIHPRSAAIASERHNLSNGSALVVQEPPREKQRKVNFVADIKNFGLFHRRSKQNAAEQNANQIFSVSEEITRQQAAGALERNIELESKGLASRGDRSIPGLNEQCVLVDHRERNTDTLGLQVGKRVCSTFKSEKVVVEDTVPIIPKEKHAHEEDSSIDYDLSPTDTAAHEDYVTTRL
- Experimental protocol: block of DAMGO-driven TRPC4 calcium entry – cell-based, HEK293 TRPC4/mu-opioid, Fluo-4 calcium, dose response (AID 434942);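 further: potency of inhibitors blocking the TRPC4 calcium response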
- Format: functional
The source made the active and inactive calls.
Metric: EC50

Report EC50 for every entry below.
1. O=C(OCC(=O)N1CCc2ccccc2C1)c1cccc([N+](=O)[O-])c1
2. Clc1ccc(-c2csc3ncnc(NCCN4CCOCC4)c23)cc1

1: 2.37 µM (active); 2: 3.35 µM (active)

Report EC50 for every entry below.
1. Cc1ccc(NC(=O)c2cc(N3C(=O)C=CC3=O)ccc2N2CCOCC2)cc1
2. COc1ccc(Nc2cc(C)nc3ccc(OC)cc23)cc1
3. Cc1ccc(Sc2ccc(CO)cc2[N+](=O)[O-])cc1
4. COC(=O)c1cccc(NC(S)=Nc2cccc(Cl)c2Cl)c1
5. Cc1cc2[nH]c3ccccc3c2c(C)n1
6. CC(=O)N(c1ccc(Cl)cc1)c1c[nH]c2ccccc12
7. Cc1nc(N2CCN(c3ccccn3)CC2)c2c(C)c(C(=O)N3CCN(c4ccccc4F)CC3)sc2n1

1. 5.31 µM (active)
2. 4.73 µM (active)
3. 3.35 µM (active)
4. 8.41 µM (active)
5. 1.68 µM (active)
6. 18.8 µM (active)
7. 1.68 µM (active)

----------
- Experimental protocol: blockers of CRF-binding protein–CRF-R2 complex – cell-based, uHTS hits, 384-well, dose response (AID 651639)
- Type: functional, Homo sapiens
- Details: read-out: IC50_Mean
Calls of active or inactive are those of the source.
Pick one and only one: active, inactive

Example cases with answers are listed next.
Dear colleague, could you share the recorded outcome for c1ccc2c(c1)OCCOCCOCCOCCOc1ccccc1OCCOCCOCCO2 when you have a moment? inactive

Dear colleague, could you share the recorded outcome for Cc1cc(C)c(C)c(S(=O)(=O)Nc2ccccc2C(=O)O)c1C when you have a moment? inactive

Dear colleague, could you share the recorded outcome for Clc1ccc(Cl)c(Oc2ccc(Oc3nc(Cl)ccc3Cl)cc2)n1 when you have a moment? active

Dear colleague, could you share the recorded outcome for COC(=O)c1cc(OC)c(OC)cc1NC(=O)c1ccco1 when you have a moment? inactive

Continuing:
Dear colleague, could you share the recorded outcome for COc1ccc(/C=C/C(=O)Nc2c(C)nn(C)c2C)cc1COc1ccc(Br)cc1 when you have a moment? inactive

----------
- Experimental system: Luciferin 4-monooxygenase (Photinus pyralis)
- Sequence (P08659 whole entry): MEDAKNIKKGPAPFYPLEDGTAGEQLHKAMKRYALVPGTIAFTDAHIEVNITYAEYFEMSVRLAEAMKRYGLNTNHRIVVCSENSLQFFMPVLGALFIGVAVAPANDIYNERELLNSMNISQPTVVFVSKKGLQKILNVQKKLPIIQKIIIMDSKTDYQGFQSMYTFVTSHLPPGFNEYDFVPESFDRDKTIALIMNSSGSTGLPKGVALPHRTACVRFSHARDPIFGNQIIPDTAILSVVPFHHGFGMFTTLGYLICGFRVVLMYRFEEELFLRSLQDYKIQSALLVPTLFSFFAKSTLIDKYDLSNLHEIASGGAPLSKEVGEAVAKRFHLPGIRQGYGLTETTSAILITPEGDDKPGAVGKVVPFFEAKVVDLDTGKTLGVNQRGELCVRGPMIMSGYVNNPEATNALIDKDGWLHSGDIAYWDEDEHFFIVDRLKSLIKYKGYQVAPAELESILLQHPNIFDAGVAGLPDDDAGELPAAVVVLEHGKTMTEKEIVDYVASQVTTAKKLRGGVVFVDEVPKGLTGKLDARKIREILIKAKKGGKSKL
- Experimental protocol: inhibition of purified Photinus pyralis luciferase – biochemical, luminescence, dose response (AID 1891)
The source made the active and inactive calls.
Metric: EC50

# EC50 lookup, item CCOC(=O)Cn1/c(=N/C(=O)CSC(C)=O)sc2ccccc21 > 112 µM (not active)

Report EC50 for every entry below.
1. Cc1c(NC(=O)c2c(N)n(-c3ccccc3)c3nc4ccccc4nc23)c(=O)n(-c2ccccc2)n1C
2. COc1ccc(CC(=O)Nc2cccc(-c3cn4ccccc4n3)c2)cc1
3. Cc1cccc(NC(=O)CN2CCC(C(=O)c3ccc4c(c3)OCCO4)CC2)c1
4. Cc1ccc(C)n1-c1ccc(C(=O)NN=C2CCCC2)cc1
5. O=[N+]([O-])c1ccc(N=Nc2c(Cl)cc(O)cc2Cl)cc1

["> 112 µM (not active)", "> 112 µM (not active)", "> 112 µM (not active)", "> 112 µM (not active)", "0.137 µM (active)"]

Report EC50 for every entry below.
1. CSc1nc2sc(-c3ccccc3)cc2c(=O)n1N
2. OC(COc1ccc2ccccc2c1Br)Cn1ccnc1 (centres undefined)
3. CCOc1ccc(C(=O)Nc2cc(C)ccn2)cc1

1. 0.191 µM (active)
2. > 112 µM (not active)
3. 1.19 µM (active)
